Source of measurements: ChEMBL document CHEMBL1153442

Target: Caspase-3 (Homo sapiens, UniProt P42574)
Sequence (P42574 29-175 limits assumed): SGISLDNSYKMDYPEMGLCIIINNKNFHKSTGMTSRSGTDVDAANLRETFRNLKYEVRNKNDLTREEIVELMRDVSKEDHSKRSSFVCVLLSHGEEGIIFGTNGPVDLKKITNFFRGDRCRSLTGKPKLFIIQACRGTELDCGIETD
Sequence (P42574 176-277 limits assumed): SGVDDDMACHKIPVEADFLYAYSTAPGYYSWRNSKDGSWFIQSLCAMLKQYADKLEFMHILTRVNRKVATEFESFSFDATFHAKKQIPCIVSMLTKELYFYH
Experiment: Inhibition of human recombinant caspase 3 assessed as accumulation of fluorogenic product by fluorometric assay
pIC50: −log10 of the molar value.
observable: pIC50

smiles_entry: O=C1C(=O)N(Cc2ccccc2)c2ccc(S(=O)(=O)N3CCC[C@H]3COc3ccccc3)cc21
pIC50: 7.84
--
smiles_entry: O=C1C(=O)N(Cc2ccc(Cl)c(Cl)c2)c2ccc(S(=O)(=O)N3CCOCC3)cc21
pIC50: 5.84

A = COc1ccc(CN2C(=O)C(=C(C#N)C#N)c3cc(S(=O)(=O)N4CCOCC4)ccc32)cc1
B = COc1ccc(CN2C(=O)C(=C(C#N)C#N)c3cc(S(=O)(=O)N4CCCC4)ccc32)cc1
C = N#CC(C#N)=C1C(=O)N(Cc2ccc(Cl)c(Cl)c2)c2ccc(S(=O)(=O)N3CCSCC3)cc21
D = N#CC(C#N)=C1C(=O)N(Cc2ccc(Cl)c(Cl)c2)c2ccc(S(=O)(=O)N3CCC3)cc21
Exercise: Put the items in sequence by pIC50, from largest down. Order the labels as requested and list them.
Key: D, B, C, A
(D: 6.44, B: 6.17, C: 5.70, A: 5.33)

A = COc1ccc(CN2C(=O)C(=C(C#N)C#N)c3cc(S(=O)(=O)N4CCC4)ccc32)cc1
B = N#CC(C#N)=C1C(=O)N(Cc2ccccc2)c2ccc(S(=O)(=O)N3CCSCC3)cc21
C = N#CC(C#N)=C1C(=O)N(Cc2ccccc2)c2ccc(S(=O)(=O)N3CCOCC3)cc21
Exercise: Put the items in sequence by pIC50, from largest down. Order the labels as requested and list them.
Key: A, B, C
(A: 6.14, B: 5.84, C: 5.33)

###

Biological target: UniProt:P55210
Sequence (P55210 24-198 limits assumed): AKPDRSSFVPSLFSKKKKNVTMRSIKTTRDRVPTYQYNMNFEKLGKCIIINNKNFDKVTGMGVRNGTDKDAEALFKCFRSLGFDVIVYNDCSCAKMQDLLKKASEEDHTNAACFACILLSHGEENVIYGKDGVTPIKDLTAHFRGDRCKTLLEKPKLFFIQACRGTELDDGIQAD
Sequence (P55210 207-303 limits assumed): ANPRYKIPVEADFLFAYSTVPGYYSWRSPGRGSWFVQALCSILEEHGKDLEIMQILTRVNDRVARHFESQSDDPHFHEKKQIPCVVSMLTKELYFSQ
Assay: Inhibition of human recombinant caspase 7 assessed as accumulation of fluorogenic product by fluorometric assay
observable: IC50 (nM)

Look over these answered cases.
smiles_entry: N#CC(C#N)=C1C(=O)N(Cc2ccc(Cl)c(Cl)c2)c2ccc(S(=O)(=O)N3CCOCC3)cc21
IC50, nM: 7900

smiles_entry: N#CC(C#N)=C1C(=O)N(Cc2ccccc2)c2ccc(S(=O)(=O)N3CCCCC3)cc21
IC50, nM: 878

smiles_entry: N#CC(C#N)=C1C(=O)N(Cc2ccc(Cl)c(Cl)c2)c2ccc(S(=O)(=O)N3CCSCC3)cc21
IC50, nM: 5100

smiles_entry: N#CC(C#N)=C1C(=O)N(Cc2ccc(Cl)c(Cl)c2)c2ccc(S(=O)(=O)N3CCCC3)cc21
IC50, nM: 471

smiles_entry: N#CC(C#N)=C1C(=O)N(Cc2ccc(Cl)c(Cl)c2)c2ccc(S(=O)(=O)N3CCCCC3)cc21
IC50, nM: 3420

smiles_entry: COc1ccc(CN2C(=O)C(=C(C#N)C#N)c3cc(S(=O)(=O)N4CCC4)ccc32)cc1
IC50, nM: 471

1 = N#CC(C#N)=C1C(=O)N(Cc2ccccc2)c2ccc(S(=O)(=O)N3CCOCC3)cc21
2 = N#CC(C#N)=C1C(=O)N(Cc2ccccc2)c2ccc(S(=O)(=O)N3CCSCC3)cc21
3 = CC(=O)N[C@@H](CC(=O)O)C(=O)N[C@@H](CCC(=O)O)C(=O)N[C@H](C(=O)N[C@H](C=O)CC(=O)O)C(C)C
4 = COc1ccc(CN2C(=O)C(=C(C#N)C#N)c3cc(S(=O)(=O)N4CCCC4)ccc32)cc1
5 = O=C1C(=O)N(Cc2ccccc2)c2ccc(S(=O)(=O)N3CCC3)cc21
Exercise: Ascending by IC50, please: list the molecules accordingly. Order the labels as requested and list them.
Key: 3, 5, 4, 2, 1

I = COc1ccc(CN2C(=O)C(=C(C#N)C#N)c3cc(S(=O)(=O)N4CCCCC4)ccc32)cc1
II = COc1ccc(CN2C(=O)C(=C(C#N)C#N)c3cc(S(=O)(=O)N4CCOCC4)ccc32)cc1
III = O=C1C(=O)N(Cc2ccc(Cl)c(Cl)c2)c2ccc(S(=O)(=O)N3CCOCC3)cc21
IV = N#CC(C#N)=C1C(=O)N(Cc2ccccc2)c2ccc(S(=O)(=O)N3CCCC3)cc21
Exercise: Put the items in sequence by IC50, from largest down. Order the labels as requested and list them.
Key: II, III, I, IV
(II: 4100 nM, III: 2230 nM, I: 1150 nM, IV: 587 nM)
